Attribution: patent US20030180744

- SUBJECT_OF_TEST: TGFβ1 (Homo sapiens, UniProt P01137 P01137:279-390)
- Sequence (P01137 279-390, one chain of several): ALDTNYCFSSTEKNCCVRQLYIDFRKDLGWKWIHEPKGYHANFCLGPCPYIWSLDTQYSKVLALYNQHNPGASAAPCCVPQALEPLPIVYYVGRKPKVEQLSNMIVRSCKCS
- PROTOCOL_DESCRIPTION: filter; not inhibitory
- CONDITIONS_USED: tags: Genentech; biotinylated version used in bead assay; chain copies: 2
In plain terms, low Kd, meaning strictly below 6 nM, gives T, and everything else gives F.

BINDER	LABEL_VALUE
lib3-45 (ssRNA, 2'-NH2 pyrimidines) RNA: GGGGGAGAACGCGGAUCCGGAAGUCUGGUCUUUGGGGAGUCCGCAUGGCCCUGGCGAAAGCUUCGCUCUAGAUCUCCCUUUAGUGAGGGUUA	T
lib6-30 (ssRNA, 2'-F pyrimidines) RNA: GGGGGAGAACGCGGAUCCUGCUAGACCGAGGAUGCAAAGGGACAUGCAUUAGGGAAACCUAUUAUAAGAACGCGGUCGCAGAAGCUUCGCUCUAGAUCUCCCUUUAGUGAGGGUUA	F
lib1-20-5 (ssRNA, 2'-F pyrimidines) RNA: GGGGGAGAACGCGGAUCCAAGAAUGUUCGGCCGCACGAGGUGACAGUGGUGCGGAUACGGACCGAUUGGGUUUGCCAAGCUUCGCUCUAGAUCUCCCUUUAGUGAGGGUUA	F
lib9-10 (ssRNA, 2'-NH2 U, 2'-F C) RNA: GGGGGAGAACGCGGAUCCUGUCUCCACCGCCGAUACUGGGGUUCCUGGGGCCCCUCCAUGCAGGAGGGGUGGUUCGGAGAAAGCUUCGCUCUAGAUCUCCCUUUAGUGAGGGUUA	T
